// values below are reported Tm
- assay_method_text: melting temperature; fluorescence melt of hairpins on a sequencing array, two-state fit, raised by 9.35 °C to match UV melts
- condition_parameters: sodium 0.088 M
Give just the number in °C; leave the unit off.

GTGATAGAAATATCAC ((((((....)))))); 46.5
GATCAGCTTCCTGATC ((((((....)))))); 49.6
GCTACACCGAAAGGTAGC (((..(((....)))))); 47.1
GCTTGGCGAAAGCGACGC ((.(.((....)).).)); 45.5

Query string: Please look up its Tm: GCCCTGGGAAACCAGAGC ((.((((....)))).))
Result string: 45.5

Query string: Please look up its Tm: GTACGGGGAAACTCGTGC (.(((.(....).))).)
Result string: 39.6

Query string: Please look up its Tm: GTCATAACGAAAGTTGAC (((..(((....))))))
Result string: 37.2

Query string: Please look up its Tm: GTAATCTCGAAAGAGTAC (((..(((....))))))
Result string: 26.7

Query string: Please look up its Tm: GGGACGCGAAAGCGCCC (((.(((....))))))
Result string: 64.7

Query string: Please look up its Tm: GATCCGACGCCGGATC ((((((....))))))
Result string: 56.7

Query string: Please look up its Tm: GGAAAAGCGAAAGCTTCC (((..(((....))))))
Result string: 40.5

Query string: Please look up its Tm: GATCACTTCAGTGATC ((((((....))))))
Result string: 63.9
